tested_on: cynomolgus monkey ABCC1 (UniProt Q864R9 1-1531)
Sequence (Q864R9 whole entry): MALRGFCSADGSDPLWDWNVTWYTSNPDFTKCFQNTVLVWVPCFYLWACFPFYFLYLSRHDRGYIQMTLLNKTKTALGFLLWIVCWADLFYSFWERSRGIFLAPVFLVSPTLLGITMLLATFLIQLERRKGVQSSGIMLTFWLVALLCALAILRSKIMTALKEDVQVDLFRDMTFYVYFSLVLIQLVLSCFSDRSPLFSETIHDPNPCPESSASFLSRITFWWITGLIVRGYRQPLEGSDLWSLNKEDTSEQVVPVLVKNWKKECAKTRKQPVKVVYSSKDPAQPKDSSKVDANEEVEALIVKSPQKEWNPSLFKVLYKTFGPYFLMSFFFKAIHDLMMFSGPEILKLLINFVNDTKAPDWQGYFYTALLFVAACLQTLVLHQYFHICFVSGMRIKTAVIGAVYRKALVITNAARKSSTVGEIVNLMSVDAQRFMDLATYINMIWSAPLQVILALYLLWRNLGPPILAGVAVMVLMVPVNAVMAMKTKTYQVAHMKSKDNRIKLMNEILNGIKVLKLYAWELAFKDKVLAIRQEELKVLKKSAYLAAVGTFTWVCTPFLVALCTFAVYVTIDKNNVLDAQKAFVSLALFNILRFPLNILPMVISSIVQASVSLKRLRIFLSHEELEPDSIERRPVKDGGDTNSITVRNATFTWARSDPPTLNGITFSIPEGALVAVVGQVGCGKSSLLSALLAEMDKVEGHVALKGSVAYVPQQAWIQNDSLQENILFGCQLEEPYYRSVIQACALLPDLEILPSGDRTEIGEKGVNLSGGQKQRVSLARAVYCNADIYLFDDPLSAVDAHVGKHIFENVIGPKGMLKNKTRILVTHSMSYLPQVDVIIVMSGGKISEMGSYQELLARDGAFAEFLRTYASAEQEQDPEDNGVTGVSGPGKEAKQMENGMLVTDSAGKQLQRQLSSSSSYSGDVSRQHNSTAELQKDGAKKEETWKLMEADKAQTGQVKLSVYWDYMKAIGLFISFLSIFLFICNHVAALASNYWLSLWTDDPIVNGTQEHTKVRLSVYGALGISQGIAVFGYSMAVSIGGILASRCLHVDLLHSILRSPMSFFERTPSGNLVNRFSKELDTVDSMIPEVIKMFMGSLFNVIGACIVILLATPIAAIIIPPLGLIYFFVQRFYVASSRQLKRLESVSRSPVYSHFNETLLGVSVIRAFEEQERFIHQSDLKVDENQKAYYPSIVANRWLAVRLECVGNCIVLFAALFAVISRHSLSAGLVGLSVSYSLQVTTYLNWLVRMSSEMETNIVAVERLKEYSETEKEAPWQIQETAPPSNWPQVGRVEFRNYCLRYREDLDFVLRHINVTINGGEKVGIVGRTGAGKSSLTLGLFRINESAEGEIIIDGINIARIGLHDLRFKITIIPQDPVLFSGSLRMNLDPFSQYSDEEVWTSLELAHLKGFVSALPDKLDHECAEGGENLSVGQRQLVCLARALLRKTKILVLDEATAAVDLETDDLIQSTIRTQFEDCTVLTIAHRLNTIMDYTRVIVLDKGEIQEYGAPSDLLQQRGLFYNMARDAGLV
test: FACS titration on C6-cC1 cells
observation_type: pKd
Give bare numbers, as −log10 of the molar value.

Recorded results for 3 binders are shown here.
* C1.773 (antibody, V domains shown) VH: EIQLAQSGPELVKPGASVKMSCKASGYSFIGYFMNWVKQSHGKSLEWIGRINPYNGDTFYNQKFKGKATLTVDKSSSTAHMELRSLTSEDSALYYCTRSGWGYDVYSFDYWGQGTLVTVSS VL: DIQMTQTPSSLSASLGDRVTISCRASQDISNYLNWYQQKPDGTVKLLIYYTSRLHSGVPSRFSGSGSGTDYSLTISNLEQEDIATYFCQQGNTLPWTFGGGTKLEIK | 8.34
* C1.863 (antibody, V domains shown) VH: EVQRKESGPGLVQPSQTLSLTCTVSGFSLTNNGVSWVRQPPGKGLEWIAAISSGGSIYYNSAFKSRLSISRITSKSQVLLKMNSLQTEDTAMYFCARHRGYYGYNWGYFDYWGQGVMVTVSS VL: NIQMTQSPSLLSASVGDRVTLSCKGSQNIYNYLAWYQQKLGEAPKLLIYKTSSLQAGIPSRFSGSGSDTDYTLTISSLHSEDLATYYCCQYNNGYTFGAGTKLEIK | 7.56
* C1.861 (antibody, V domains shown) VH: EVQLKESGPGLVQPSQTLSLTCTVSGFSLTSNGVTWVRQPPGKGLEWIAAISSGGNIYYNSAVKSRLSISRDTSKSQVFLKMNSLQTEDTAIYFCTRARGTTTAYVMDAWGQGASVTVSS VL: DVVLTQSPSSLAVSAGETVTINCKSSQSLLYSGNQKNYLAWYQQKPGQSPKLLIYWASTRQSGVPDRFIGSGSGTDFTLTISSVQAEDLAIYYCQQYYDVLMNMFGAGTKLEIK | 7.55

So what's the measured pKd for this one? C1.787a (antibody, V domains shown) VH: EVQLTESGPGLVQPSQTLSLTCTVSGFSLTSNGVSWVRQPPGKGLEWIAAISSGGSTYYNSAFKSRLSISRHTSKSQVLLNMNSLQTEDTAMYFCARHRGYYWSNWGYFDYWGQGVMVTVSS VL: NIQLTQSPSLLSASVGDRVTLSCKGSQNINNYLAWYQQKLGEAPKLLIYKTNSLQTGIPSRFSGSGSGTDYTLTLSSLHSEDLATYYCCQYNDGYTFGAGTKLELK 7.56

Just for reference, patent US20230272117A1 is where these values come from.
